B1: OR3A1 (parent)
chain: PMYFFLGNLSVLDVGCISVTVPSM

- Variants of: B1
- METHOD SUMMARY: protein stability index of a GFP-peptide fusion (GPS, HEK-293T) (PSI 1-6); higher = more stable;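 further: lentivirally expressed fusions sorted by FACS into six bins by GFP to DsRed ratio, PSI derived from sequencing read proportions per bin multiplied by bin number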
- CONDITION DESCRIPTION: c terminus: a fixed tail appended
Reported protein stability index is given for each of the following variants.
Please reply with the number alone, leaving off any unit.

Would you please look over these solved cases?
>  <MUTANT ID>
L12M

>  <protein stability index>
1.62

$$$$
>  <MUTANT ID>
D13E

>  <protein stability index>
3.63

$$$$
>  <MUTANT ID>
S23H

>  <protein stability index>
2.76

$$$$
>  <MUTANT ID>
M24P

>  <protein stability index>
3.41

$$$$
>  <MUTANT ID>
V21S

>  <protein stability index>
2.8

$$$$
>  <MUTANT ID>
S18D

>  <protein stability index>
2.66

$$$$
>  <MUTANT ID>
S23T

>  <protein stability index>
2.84

$$$$
>  <MUTANT ID>
D13Q

>  <protein stability index>
2.48

$$$$

The variant listed as P1A has a reported protein stability index of 2.23

The variant listed as D13M has a reported protein stability index of 2.35

The variant listed as Y3G has a reported protein stability index of 2.22

The variant listed as M2H has a reported protein stability index of 2.67
